Biological target: DDR2 (human) (UniProt Q16832)
Sequence (Q16832 whole entry, looked up): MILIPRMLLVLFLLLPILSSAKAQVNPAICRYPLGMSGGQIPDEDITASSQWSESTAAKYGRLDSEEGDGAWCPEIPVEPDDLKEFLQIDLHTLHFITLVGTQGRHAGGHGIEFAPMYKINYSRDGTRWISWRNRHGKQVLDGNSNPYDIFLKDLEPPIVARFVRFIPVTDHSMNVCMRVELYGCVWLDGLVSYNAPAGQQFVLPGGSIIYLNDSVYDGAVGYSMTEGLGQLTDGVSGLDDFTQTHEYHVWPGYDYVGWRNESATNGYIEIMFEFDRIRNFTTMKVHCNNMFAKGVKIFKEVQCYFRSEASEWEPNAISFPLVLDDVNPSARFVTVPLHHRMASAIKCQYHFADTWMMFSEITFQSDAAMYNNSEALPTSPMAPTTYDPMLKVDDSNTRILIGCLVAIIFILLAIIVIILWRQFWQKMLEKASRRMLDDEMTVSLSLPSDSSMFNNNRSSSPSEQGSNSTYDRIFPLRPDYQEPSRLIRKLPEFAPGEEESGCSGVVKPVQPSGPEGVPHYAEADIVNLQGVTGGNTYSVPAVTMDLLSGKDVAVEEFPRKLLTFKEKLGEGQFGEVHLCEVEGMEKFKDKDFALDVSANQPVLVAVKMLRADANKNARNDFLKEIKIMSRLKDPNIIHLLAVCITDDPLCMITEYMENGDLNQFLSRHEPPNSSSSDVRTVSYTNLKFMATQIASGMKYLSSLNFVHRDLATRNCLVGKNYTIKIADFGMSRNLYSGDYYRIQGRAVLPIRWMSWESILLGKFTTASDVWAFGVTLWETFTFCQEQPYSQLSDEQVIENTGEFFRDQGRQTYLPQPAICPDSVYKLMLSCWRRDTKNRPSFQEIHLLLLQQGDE
Experiment: KINOMEscan competition binding
Conditions: compound 10.0 µM
I'd be grateful if you could share measured kinase still bound, per cent of control for these entries.
Give the number; % is assumed, so skip it.

Reported kinase still bound, per cent of control for DDR2 (human) (UniProt Q16832), given N#C/C(=C1/Nc2ccccc2S1)c1ccnc(NCCc2cccnc2)n1 ?
100

Note, next up: CCN(CCO)CCCOc1ccc2c(Nc3cc(CC(=O)Nc4cccc(F)c4)[nH]n3)ncnc2c1
27

Thanks! And CNC(=O)Nc1ccc(-c2nc(N3CC4CCC(C3)O4)c3cnn(C4CCC5(CC4)OCCO5)c3n2)cc1 ?
100

Also need Cc1cn(-c2cc(C(=O)Nc3ccc(C)c(NC(=O)c4ccno4)c3)cc(C(F)(F)F)c2)cn1 , thanks.
15

One more molecule: CCCS(=O)(=O)Nc1ccc(F)c(C(=O)c2c[nH]c3ncc(Cl)cc23)c1F
15

Another molecule to look at: COc1cc(N2CCC(C(N)=O)CC2)ccc1Nc1nc(N)c(Cl)c(Nc2ccccc2S(=O)(=O)C(C)C)n1
100

How about this molecule: CC1=C(C(=O)Nc2cc3cn[nH]c3cc2F)C(c2ccc(C(F)(F)F)cc2)CC(=O)N1 (stereo not drawn)
100

What would you report for COc1cc2ncnc(Nc3cccc(Cl)c3)c2cc1OC ?
42

Follow-up entry: COc1ccc(N(C(=O)Oc2cc(C(=O)Nc3cccc(C(F)(F)F)c3)ccc2C)c2ccnc(Nc3ccc(N4CCN(C)CC4)cc3)n2)c(OC)c1
100

Same question, CCN1CCN(Cc2ccc(NC(=O)c3ccc(C)c(/C=C/c4cnc5[nH]ccc5c4OC)c3)cc2C(F)(F)F)CC1 this time
9

Same thing, different molecule: COc1cc(C)c(Sc2cnc(NC(=O)c3ccc(CNC(C)C(C)C)cc3)s2)cc1C(=O)N1CCN(C(C)=O)CC1 (stereo not drawn)
100

Another molecule to check: CCOc1cc(N2CCC(O)CC2)ccc1Nc1ncc2c(n1)N(C)c1ccccc1C(=O)N2C
100

Try the molecule C=CC(=O)Nc1ccc(C(=O)c2sc(Nc3ccc(N4CCN(C)CC4)cc3OC)nc2N)cc1
100

And then N#Cc1cc(-c2ccnc(Nc3ccc(-n4cnc(-c5cccnc5)n4)cc3)n2)cc(N2CCOCC2)c1 , what is it?
100

Repeat with CC(=O)c1c(C)c2cnc(Nc3ccc(N4CCNCC4)cn3)nc2n(C2CCCC2)c1=O
56

Same lookup for CCc1nc(-c2cccc(C)c2)c(-c2ccnc(NC(=O)c3ccccc3)c2)s1 , please.
16

Field entry: O=c1[nH]c2ccccc2n1C1CCN(Cc2ccc(-c3nc4cc5[nH]cnc5cc4nc3-c3ccccc3)cc2)CC1
76

Entry COc1cc2c(Nc3ccc(NC(=O)c4ccccc4)cc3)ncnc2cc1OCCCN1CCOCC1 please
100

###

Target: MAP3K12 (human)
Test: KINOMEscan competition binding
Conditions: compound 10.0 µM
Lab note: anything with kinase still bound, per cent of control below 80% is marked class 1; values at 80% or higher are marked class 0.

Quick check: kinase still bound, per cent of control of COc1ccc(N(C(=O)Oc2cc(C(=O)Nc3cccc(C(F)(F)F)c3)ccc2C)c2ccnc(Nc3ccc(N4CCN(C)CC4)cc3)n2)c(OC)c1 under 80%?
class 0

One more compound: COc1cc2c(Nc3ccc(NC(=O)c4ccccc4)cc3)ncnc2cc1OCCCN1CCOCC1
class 1

Can you check COc1cc(C)c(Sc2cnc(NC(=O)c3ccc(CNC(C)C(C)C)cc3)s2)cc1C(=O)N1CCN(C(C)=O)CC1 (centres undefined) next?
class 1

Same question for O=c1[nH]c2ccccc2n1C1CCN(Cc2ccc(-c3nc4cc5[nH]cnc5cc4nc3-c3ccccc3)cc2)CC1 please.
class 0

Similarly, COc1cc2ncnc(Nc3cccc(Cl)c3)c2cc1OC ?
class 0

Moving on to the next compound: CC(=O)c1c(C)c2cnc(Nc3ccc(N4CCNCC4)cn3)nc2n(C2CCCC2)c1=O
class 1

What do you get for COc1cc(N2CCC(C(N)=O)CC2)ccc1Nc1nc(N)c(Cl)c(Nc2ccccc2S(=O)(=O)C(C)C)n1 ?
class 0

Next compound up: Cc1cn(-c2cc(C(=O)Nc3ccc(C)c(NC(=O)c4ccno4)c3)cc(C(F)(F)F)c2)cn1
class 0

###

Target: MAP2K1 (human)
Experiment: KINOMEscan competition binding
Details: compound 10.0 µM
Task for the reader: assign each of the following compounds its reported kinase still bound, per cent of control.
Param answer (str): number followed by unit.

I'm curious: which kinase still bound, per cent of control was measured for COc1cc2c(Nc3ccc(NC(=O)c4ccccc4)cc3)ncnc2cc1OCCCN1CCOCC1 tested on MAP2K1 (human)?
0.1%

Then this compound: Cc1cn(-c2cc(C(=O)Nc3ccc(C)c(NC(=O)c4ccno4)c3)cc(C(F)(F)F)c2)cn1
100%

Now give it for CC(=O)c1c(C)c2cnc(Nc3ccc(N4CCNCC4)cn3)nc2n(C2CCCC2)c1=O too.
20%

Now consider CCOc1cc(N2CCC(O)CC2)ccc1Nc1ncc2c(n1)N(C)c1ccccc1C(=O)N2C and answer again.
100%

Also, COc1ccc(N(C(=O)Oc2cc(C(=O)Nc3cccc(C(F)(F)F)c3)ccc2C)c2ccnc(Nc3ccc(N4CCN(C)CC4)cc3)n2)c(OC)c1 please.
100%

Also need CCCS(=O)(=O)Nc1ccc(F)c(C(=O)c2c[nH]c3ncc(Cl)cc23)c1F , thanks.
0.8%

Another compound to look at: CCN(CCO)CCCOc1ccc2c(Nc3cc(CC(=O)Nc4cccc(F)c4)[nH]n3)ncnc2c1
32%

Request: CCN1CCN(Cc2ccc(NC(=O)c3ccc(C)c(/C=C/c4cnc5[nH]ccc5c4OC)c3)cc2C(F)(F)F)CC1
74%

###

Test system: RET (human), P07949 [V804L]
Sequence (P07949 whole entry V804L, looked up): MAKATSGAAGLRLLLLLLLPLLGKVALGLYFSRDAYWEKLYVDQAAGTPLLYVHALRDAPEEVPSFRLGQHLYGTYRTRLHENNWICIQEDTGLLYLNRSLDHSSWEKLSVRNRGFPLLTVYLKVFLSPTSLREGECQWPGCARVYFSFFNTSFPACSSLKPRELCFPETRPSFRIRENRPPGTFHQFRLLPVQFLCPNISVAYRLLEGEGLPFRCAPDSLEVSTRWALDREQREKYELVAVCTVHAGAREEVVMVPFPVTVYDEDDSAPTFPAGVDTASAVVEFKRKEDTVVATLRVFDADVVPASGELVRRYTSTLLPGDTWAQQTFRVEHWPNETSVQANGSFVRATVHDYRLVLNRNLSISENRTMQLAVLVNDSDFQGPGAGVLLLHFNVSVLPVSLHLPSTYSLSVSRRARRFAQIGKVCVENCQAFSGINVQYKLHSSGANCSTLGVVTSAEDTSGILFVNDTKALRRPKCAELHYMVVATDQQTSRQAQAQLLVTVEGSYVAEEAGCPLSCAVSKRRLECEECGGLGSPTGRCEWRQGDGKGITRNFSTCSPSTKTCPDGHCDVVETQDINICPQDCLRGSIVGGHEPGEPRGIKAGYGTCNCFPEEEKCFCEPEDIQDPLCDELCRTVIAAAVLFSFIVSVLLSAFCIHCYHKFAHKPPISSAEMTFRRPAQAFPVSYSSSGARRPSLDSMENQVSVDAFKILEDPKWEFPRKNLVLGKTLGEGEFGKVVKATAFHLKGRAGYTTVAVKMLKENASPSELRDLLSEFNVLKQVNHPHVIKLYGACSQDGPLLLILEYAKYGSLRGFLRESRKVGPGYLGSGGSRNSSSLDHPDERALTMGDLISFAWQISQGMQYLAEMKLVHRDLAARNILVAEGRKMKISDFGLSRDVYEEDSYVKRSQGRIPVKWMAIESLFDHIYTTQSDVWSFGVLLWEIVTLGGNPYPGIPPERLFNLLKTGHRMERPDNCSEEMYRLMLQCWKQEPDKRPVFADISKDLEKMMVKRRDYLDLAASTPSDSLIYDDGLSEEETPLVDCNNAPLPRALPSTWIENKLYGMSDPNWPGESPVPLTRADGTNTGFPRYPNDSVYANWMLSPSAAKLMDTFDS
Assay: KINOMEscan competition binding
Settings: compound 10.0 µM
Task for the reader: assign each of the following compounds its reported kinase still bound, per cent of control.
Provide the reading as a plain figure in %.

Entry COc1cc2ncnc(Nc3cccc(Cl)c3)c2cc1OC has what kinase still bound, per cent of control?
100

Query O=C1NC(=O)/C(=C/c2ccc3nccc(-c4ccncc4)c3c2)S1 next
100

Follow-up entry: CCN1CCN(C(=O)Cc2ccc(Nc3ncc(F)c(Nc4ccc(C(=O)Nc5ccccc5Cl)cc4)n3)cc2)CC1
3.2

Thanks! And CNC(=O)c1ccc(Nc2cc(Nc3ccccc3S(=O)(=O)C(C)C)c3cc[nH]c3n2)nc1 ?
0.2

Also check NC(=O)Nc1cc(-c2cccc(F)c2)sc1C(=O)N[C@@H]1CCCNC1
0

Ok, now Cc1ccc2nc(NCCN)c3ncc(C)n3c2c1
100

###

Biological target: CDC42BPG (human)
Test: KINOMEscan competition binding
Details: compound 10.0 µM
Assay Metric: kinase still bound, per cent of control
The answer consists of two parts: a number and, after it, its unit.

Write down the reported kinase still bound, per cent of control of CC1=C(C(=O)Nc2cc3cn[nH]c3cc2F)C(c2ccc(C(F)(F)F)cc2)CC(=O)N1 (stereo not drawn) , test system: CDC42BPG (human).
83%

Can you check N#Cc1cc(-c2ccnc(Nc3ccc(-n4cnc(-c5cccnc5)n4)cc3)n2)cc(N2CCOCC2)c1 next?
63%

Query COc1cc(C)c(Sc2cnc(NC(=O)c3ccc(CNC(C)C(C)C)cc3)s2)cc1C(=O)N1CCN(C(C)=O)CC1 (stereo not drawn) next
100%

Lookup COc1ccc(N(C(=O)Oc2cc(C(=O)Nc3cccc(C(F)(F)F)c3)ccc2C)c2ccnc(Nc3ccc(N4CCN(C)CC4)cc3)n2)c(OC)c1
100%

Then this compound: CC(=O)c1c(C)c2cnc(Nc3ccc(N4CCNCC4)cn3)nc2n(C2CCCC2)c1=O
94%

Next: CCc1nc(-c2cccc(C)c2)c(-c2ccnc(NC(=O)c3ccccc3)c2)s1
15%

Ok, now COc1cc(N2CCC(C(N)=O)CC2)ccc1Nc1nc(N)c(Cl)c(Nc2ccccc2S(=O)(=O)C(C)C)n1
100%

Another compound to look at: C=CC(=O)Nc1ccc(C(=O)c2sc(Nc3ccc(N4CCN(C)CC4)cc3OC)nc2N)cc1
93%

###

Test system: KIT (human), P10721 [D816H]
Sequence (P10721 whole entry D816H, looked up): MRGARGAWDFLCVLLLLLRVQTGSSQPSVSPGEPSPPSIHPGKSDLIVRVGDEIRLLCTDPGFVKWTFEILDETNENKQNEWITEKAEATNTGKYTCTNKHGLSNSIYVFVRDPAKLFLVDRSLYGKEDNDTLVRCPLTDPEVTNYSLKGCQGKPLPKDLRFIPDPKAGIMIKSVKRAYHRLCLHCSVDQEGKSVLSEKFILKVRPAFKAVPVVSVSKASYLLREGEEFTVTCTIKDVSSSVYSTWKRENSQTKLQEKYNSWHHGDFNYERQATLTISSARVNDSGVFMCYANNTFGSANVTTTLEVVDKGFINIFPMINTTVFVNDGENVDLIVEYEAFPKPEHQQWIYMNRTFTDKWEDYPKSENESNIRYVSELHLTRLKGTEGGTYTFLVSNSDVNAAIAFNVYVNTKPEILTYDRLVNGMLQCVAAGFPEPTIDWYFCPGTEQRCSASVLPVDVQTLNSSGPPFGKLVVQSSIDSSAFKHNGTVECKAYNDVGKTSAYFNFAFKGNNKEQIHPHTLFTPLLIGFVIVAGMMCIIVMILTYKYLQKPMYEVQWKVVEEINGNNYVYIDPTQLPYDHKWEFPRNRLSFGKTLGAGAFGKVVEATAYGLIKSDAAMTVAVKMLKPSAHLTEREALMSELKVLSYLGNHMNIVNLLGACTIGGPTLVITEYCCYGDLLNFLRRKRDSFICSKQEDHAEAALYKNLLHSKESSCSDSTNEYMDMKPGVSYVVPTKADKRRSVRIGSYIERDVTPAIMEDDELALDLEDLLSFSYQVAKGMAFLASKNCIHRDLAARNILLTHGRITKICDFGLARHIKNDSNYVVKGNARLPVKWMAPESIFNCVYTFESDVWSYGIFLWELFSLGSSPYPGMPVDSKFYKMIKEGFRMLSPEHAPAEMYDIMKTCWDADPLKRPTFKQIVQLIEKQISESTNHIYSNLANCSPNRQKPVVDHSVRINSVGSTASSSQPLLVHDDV
Experiment: KINOMEscan competition binding
Settings: compound 10.0 µM
// classify: if (kinase still bound, per cent of control < 50%) 1 else -1

Here's an entry: O=C1Nc2ccc(I)cc2/C1=C/c1cc(Br)c(O)c(Br)c1 . Is its kinase still bound, per cent of control below 50%?
-1

Please do the same for O=C(Nc1cccc(Nc2ncc(Br)c(NCCc3cnc[nH]3)n2)c1)N1CCCC1 as well.
1

Now consider COc1cc(N2CCN(C)CC2)ccc1Nc1nc(N)c(C(=O)c2c(Cl)cccc2Cl)s1 .
-1

How about this compound: Cc1ccc2nc(NCCN)c3ncc(C)n3c2c1
-1

And for Cc1ccc(NC(=O)c2cccc(C(C)(C)C#N)c2)cc1Nc1ccc2ncn(C)c(=O)c2c1 ?
-1

Then this compound: O=C(NC1CC1)c1cccc(-c2ccc3c(NC(=O)C4CC4)n[nH]c3c2)c1
-1

Now consider CCOc1cc2ncc(C#N)c(Nc3ccc(OCc4ccccn4)c(Cl)c3)c2cc1NC(=O)/C=C/CN(C)C .
-1

Can you check Cc1cc([C@@H](C)Nc2ccccc2C(=O)O)c2nc(N3CCOCC3)cc(=O)n2c1 next?
-1

Do the same for C=CC(=O)Nc1cc(-n2c(=O)ccc3cnc4ccc(-c5cn[nH]c5)cc4c32)ccc1C please
1

Here is the next compound: CNC(=O)c1cc(Oc2ccc(NC(=O)Nc3ccc(Cl)c(C(F)(F)F)c3)cc2)ccn1
1

Now consider COc1ccc(N(C(=O)Oc2c(C)cccc2C)c2ccnc(Nc3ccc(N4CCN(C)CC4)cc3)n2)c(OC)c1 and answer again.
1

Proceed to C=CC(=O)Nc1cccc(Nc2nc(N[C@H]3CC[C@H](N(C)C)CC3)nc3c2ncn3C(C)C)c1
1

And then N#C/C(=C1/Nc2ccccc2S1)c1ccnc(NCCc2cccnc2)n1 , what is it?
-1

Queued: C=CC(=O)Nc1ccc(C(=O)c2sc(Nc3ccc(N4CCN(C)CC4)cc3OC)nc2N)cc1
-1

Entry O=C1NC(=O)/C(=C/c2ccc3nccc(-c4ccncc4)c3c2)S1 please
-1

// query: CCc1nc(-c2cccc(C)c2)c(-c2ccnc(NC(=O)c3ccccc3)c2)s1
-1

Could you do the same for C[C@@H](Oc1cc(-n2cnc3ccc(CN4CCN(C)CC4)cc32)sc1C(N)=O)c1ccccc1C(F)(F)F , please?
1
